# credit: patent US20040048243A1

- target-under-test: rhAngiostatin (human, UniProt P00747 98-357, limits assumed)
- Sequence (P00747 98-357 limits assumed): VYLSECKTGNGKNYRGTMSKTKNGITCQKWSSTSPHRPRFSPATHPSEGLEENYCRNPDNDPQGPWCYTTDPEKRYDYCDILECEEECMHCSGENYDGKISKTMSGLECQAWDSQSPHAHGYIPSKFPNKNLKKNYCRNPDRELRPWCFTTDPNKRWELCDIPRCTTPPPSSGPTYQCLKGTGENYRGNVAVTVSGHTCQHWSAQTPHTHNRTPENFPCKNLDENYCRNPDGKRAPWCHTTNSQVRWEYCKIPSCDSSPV
- method: phage binding to coated wells; colonies from rhAngiostatin wells divided by those from rh-Endostatin wells
No end group written: not given here.
Param label: returns rule met when rh-Angio/rhEndo (ratio of colonies recovered) < 500 ratio, returns rule not met otherwise, including exact equality.

[[record]]
binder = "CWSLELSKC (not fully specified (bridges); cysteine pairing not given here; also: displayed on phage) [phage displaying CWSLELSKC]"
group = "rule not met"

[[record]]
binder = "CYGAWRVSC (not fully specified (bridges); cysteine pairing not given here; also: displayed on phage) [phage displaying CYGAWRVSC]"
group = "rule met"

[[record]]
binder = "CWSAEWTKC (not fully specified (bridges); cysteine pairing not given here; also: displayed on phage) [phage displaying CWSAEWTKC]"
group = "rule met"

[[record]]
binder = "CWSLEFTKC (not fully specified (bridges); cysteine pairing not given here; also: displayed on phage) [phage displaying CWSLEFTKC]"
group = "rule not met"

